Tested on: Plasmodium falciparum
Experiment: GSK_TCMDC: Inhibition of Plasmodium falciparum 3D7 in whole red blood cells, using parasite LDH activity as an index of growth. Test compounds present at 2uM
Format: functional
Recorded Inhibition by entry
Measurement label: Inhibition (%)

Compound: CC[C@H]1CN2CC[C@@H]1C[C@H]2[C@H](O)c1ccnc2ccc(OC)cc12
Measurement label: Inhibition
Reading unit: %
Obs value: 100

Compound: CNCCN(C)C(=O)Oc1c(Br)c(C)nc(C)c1-c1ccc(Oc2ccc(OC(F)(F)F)cc2)cc1.Cl
Measurement label: Inhibition
Reading unit: %
Obs value: 98

Compound: CN1CC=C(c2c[nH]c3ccc(OCc4ccccc4)cc23)CC1
Measurement label: Inhibition
Reading unit: %
Obs value: 95

Compound: O=C(/C=C/c1ccc(Cl)cc1Cl)NC1CCC(CN2CCC(c3c[nH]c4ccccc34)CC2)CC1 (centres undefined)
Measurement label: Inhibition
Reading unit: %
Obs value: 100

Compound: CC(C)CNCc1ccc(-c2cccc(CN(C(=O)Nc3ccccc3)C3CCN(Cc4ccccc4)CC3)c2)cc1.O=C(O)C(F)(F)F
Measurement label: Inhibition
Reading unit: %
Obs value: 100

Compound: Cc1cc(CN2CCN(CCOC(c3ccccc3)c3ccccc3)CC2)ccc1O
Measurement label: Inhibition
Reading unit: %
Obs value: 97

Compound: CNCCN(C)C(=O)Oc1c(Cl)c(C)nc(C)c1-c1ccc(Oc2ccc(OC(F)(F)F)cc2)cc1.Cl
Measurement label: Inhibition
Reading unit: %
Obs value: 97

Compound: Cc1[nH]c2cc(F)ccc2c1C1=CCN(CCCCC2(C)C(=O)Nc3c(F)cccc32)CC1 (centres undefined)
Measurement label: Inhibition
Reading unit: %
Obs value: 96

Compound: CC(=O)Nc1ccc(CN2CCC(N(C)c3cc(NC(=O)c4cccs4)ccn3)CC2)cc1.O=C(O)C(F)(F)F
Measurement label: Inhibition
Reading unit: %
Obs value: 100
